- System: HT-29
- procedureSummary: NCI tumour cell line growth inhibition, 48 h
Calls of active or inactive are those of the source. Cut-off read from the data, not from the text of the source: active = GI50 up to about 1.1 µM and inactive = higher.

# compound, GI50
measured = [
    ("CCCN1C(=O)CN(S(=O)(=O)c2ccc(Cl)cc2)C1=O", "> 100 µM (inactive)"),
    ("CC1(C)CC(=O)C=C(NC(=O)c2ccccc2)C1", "> 100 µM (inactive)"),
    ("OCCOCn1cc(Cn2ncc3c(SCc4ccccc4)ncnc32)nn1", "38.2 µM (inactive)"),
    ("Cc1cc(C)nc(NS(=O)(=O)c2ccc(Nc3c4ccc(Cl)cc4nc4c(C(=O)NCCN(C)C)cccc34)cc2)n1", "> 100 µM (inactive)"),
    ("C/C(=N/NC(=S)N1CCCCC1)c1cccc(/C(C)=N\\NC(=S)N2CCCCC2)n1", "2.51 µM (inactive)"),
    ("COc1ccc2c(c1)CCN1CCc3ccccc3CC21 (stereo unspecified)", "27.8 µM (inactive)"),
    ("CC(C)(C)OC(=O)N(CCNS(=O)(=O)c1cccc2cnccc12)CCC(=O)ON1C(=O)CCC1=O", "> 100 µM (inactive)"),
    ("CC12CCC(C1)C(C)(C)C2OC(=O)c1ccccc1N (stereo unspecified)", "14.9 µM (inactive)"),
    ("CN(C)N1C(=O)SCC(c2ccccc2)(c2ccccc2)C1=O", "> 100 µM (inactive)"),
    ("O=C1C=CC2(CCC23C=CC(=O)O3)O1 (stereo unspecified)", "> 100 µM (inactive)"),
    ("COc1cc2ccnc3c2c(c1OC)-c1coc(SC)c1-3", "94.8 µM (inactive)"),
]

====

- System: OVCAR-3
- procedureSummary: NCI tumour cell line growth inhibition, 48 h
The source made the active and inactive calls. Rule as the data show it: active = GI50 up to about 1.1 µM and inactive = higher.

# compound, testedSystem, GI50
measured = [
    ("CC(=O)c1cccc(NC(=O)C(=O)C(c2cnc3ccc([N+](=O)[O-])cc3n2)[N+](=O)[O-])c1 (stereo not given)", "OVCAR-3", "> 100 µM (inactive)"),
    ("CSc1c(C(=O)Nc2ccc(Cl)cc2)c(N)nn1-c1ccccc1", "OVCAR-3", "> 100 µM (inactive)"),
    ("COc1ccc2c(c1)[n+]([O-])c1cc(C#N)ccc1[n+]2[O-]", "OVCAR-3", "5.83 µM (inactive)"),
    ("O=C(O)CSc1nnc(/C=C/c2ccccc2)[nH]1", "OVCAR-3", "> 100 µM (inactive)"),
    ("COC1=CC(=O)C2C(C1=O)C(c1ccc(OC)c(OC)c1)[C@H]2C (stereo not given in full)", "OVCAR-3", "19.6 µM (inactive)"),
]

====

- Tested on: BT-549
- procedureSummary: NCI tumour cell line growth inhibition, 48 h
Calls of active or inactive are those of the source. No stated cut-off is given here; in the data, active = GI50 up to about 1.1 µM and inactive = higher.
GI50: recorded values
quantityName: GI50

# molecule, result
rows = [
    ("CCOP(=O)(OCC)/C(C#N)=C/c1c(C)[nH]c2ccccc12", "> 100 µM (inactive)"),
    ("CCCCC(=O)NC1(c2cc3ccccc3s2)CCCCC1", "> 100 µM (inactive)"),
    ("CSc1ncc2c(n1)-c1ccccc1OC2NC1CC1 (stereo not drawn)", "38 µM (inactive)"),
]

====

- Test system: UACC-257
- procedureSummary: NCI tumour cell line growth inhibition, 48 h
Counter-ions that a name gives are not always drawn. Active and inactive are the calls of the source. No stated cut-off is given here; in the data, active = GI50 up to about 1.1 µM and inactive = higher.
Possible outcomes: active, inactive

# compound, testedSystem, qualitativeLabel
data = [
    ("CCOC(=O)c1csc(NC(=O)C(C)N2CCOCC2)n1 (stereo not given)", "UACC-257", "inactive"),
    ("CCOC(=O)C(CC/C=C\\c1ccccc1)N1CCC[C@H]1C(=O)OC (stereo not given in full)", "UACC-257", "inactive"),
    ("O=C1c2ccccc2C(=O)c2c1ccc1conc21", "UACC-257", "inactive"),
    ("Cc1c(C#N)c(=O)[nH]c(=O)n1CCN1CCN(C(=O)NCCCCCCNC(=O)N2CCN(CCn3c(C)c(C#N)c(=O)[nH]c3=O)CC2)CC1", "UACC-257", "inactive"),
    ("COc1cc2ccccc2oc1=O", "UACC-257", "inactive"),
    ("O=C1C(/N=N/c2ccc(-c3nc4ccccc4o3)cc2)NC(=S)N1c1ccccc1 (stereo not given)", "UACC-257", "inactive"),
    ("CN(C)N1C(=O)SCC(c2ccccc2)(c2ccccc2)C1=O", "UACC-257", "inactive"),
    ("C=CCOC(=O)NC1C(OC(C)[C@@H](NC(=O)OCc2ccccc2)C(=O)OC(C)(C)C)OC(COC(C)=O)C(OC(C)=O)C1OC(C)=O (stereo not given in full)", "UACC-257", "inactive"),
    ("N=c1ccn2c(n1)O[C@H]1[C@H](O)[C@@H](CO)O[C@H]12 [ANCITABINE HYDROCHLORIDE]", "UACC-257", "inactive"),
    ("CCC1=NC(N/N=C/c2ccco2)=N/C1=C\\c1ccco1", "UACC-257", "inactive"),
    ("O=C1CC(c2ccccc2)C2(C(=O)NC(=S)NC2=O)C(c2ccccc2)C1 (stereo not given)", "UACC-257", "inactive"),
    ("CCCSc1ccc2[nH]c(N3C(=O)/C(=C/c4ccc(O)c(OC)c4)N=C3c3ccccc3)cc2c1", "UACC-257", "inactive"),
    ("O=C1/C(=C/c2ccc(C(=O)O)cc2)CNC/C1=C\\c1ccc(C(=O)O)cc1", "UACC-257", "inactive"),
    ("C/N=C(\\NC(=S)N(C)C)N(C)C", "UACC-257", "inactive"),
    ("Cc1ccc(NC(=O)/C(=N\\NC(N)=S)C(C#N)c2ccccc2C)cc1C (stereo not given)", "UACC-257", "inactive"),
    ("O=C1OC(=O)C2C1C1(c3ccccc3)OC2(c2ccccc2)c2c(Br)c(Br)c(Br)c(Br)c21 (stereo not given)", "UACC-257", "inactive"),
    ("Cn1c(N/N=C/c2ccc(Cl)cc2)nc(-c2ccc(Cl)cc2)c(C#N)c1=O", "UACC-257", "inactive"),
    ("CC1(C)OC2COC(c3n[nH]c4c(=O)[nH]c(=O)[nH]c34)C2O1 (stereo not given)", "UACC-257", "inactive"),
    ("CC1(C)O[C@H]2OC(CO)C(OS(C)(=O)=O)[C@H]2O1 (stereo not given in full)", "UACC-257", "inactive"),
    ("CCCNCC(=O)O[C@]1(CC)C(=O)OCc2c1cc1n(c2=O)Cc2cc3ccccc3nc2-1", "UACC-257", "active"),
]

====

- System: SR
- procedureSummary: NCI tumour cell line growth inhibition, 48 h
The source made the active and inactive calls. Cut-off read from the data, not from the text of the source: active = GI50 up to about 1.1 µM and inactive = higher.
Possible outcomes: 1 (active), -1 (inactive)

# compound, qualitativeLabel
data = [
    ("C=C1C(=O)O[C@H]2C(=O)[C@H](C)CCC/C(C)=C/CC[C@@]3(C)O[C@@H]3C[C@@H]12", -1),
    ("CC(C)(C)C(=O)CC1=Nc2ccccc2SC1(O)CC(=O)C(C)(C)C (stereo unspecified)", -1),
    ("CC(=O)OCc1cc(OC(C)=O)cnc1COC(C)=O", -1),
    ("C=CC(=O)N1C/C(=C\\c2ccc(Cl)cc2)C(=O)/C(=C/c2ccc(Cl)cc2)C1", 1),
    ("O=C(Cn1ccc(=O)[nH]c1=O)Nc1ccc(C(=O)O)c(O)c1", -1),
    ("O=c1[nH]c(=O)n(C2CC(O)C(CO)O2)c2nc3ccc4ccccc4c3nc12 (stereo unspecified)", -1),
    ("CCc1cccc(C(C)C)c1NC(=O)C(=O)C(Cc1nc2ccccc2nc1O)C(=O)OC (stereo unspecified)", -1),
    ("O=[N+]([O-])/C=C(\\CS(=O)(=O)c1ccccc1)c1ccc2c(c1)OCO2", -1),
    ("[N-]=[N+]=Nc1c([N+](=O)[O-])c(=O)n2c3c(cccc13)CCC2", -1),
    ("CCOC(=O)C1(Cc2ccccc2)C=CN(C(=O)c2ccccc2)C=C1", -1),
    ("Oc1cc(CN2CCOCCOCCOCCOCC2)c(O)cc1CN1CCOCCOCCOCCOCC1", -1),
    ("Cc1ccc(NCC(=O)N2CC(=O)Nc3ccccc32)cc1", -1),
    ("COC(=O)C(=O)C(C(=O)OC)C(=O)C(=O)Nc1c(Cl)cc([N+](=O)[O-])cc1Cl (stereo unspecified)", -1),
    ("CCC(=O)N(O)C(C)(C)C", -1),
    ("CCOc1ccc(/C=C/c2cc(OC)c(OC)c(OC)c2)cc1", -1),
    ("COc1ccc(C[C@H](N)C(=O)NC2C(CO)OC(n3cnc4c(N(C)C)ncnc43)C2O)cc1 (stereo partly specified)", 1),
    ("CCOC(=O)c1cccc(/N=N/c2nc[nH]c2/C=C/C(=O)OC)c1", -1),
    ("COc1cc2ccnc3c2c(c1OC)-c1coc(SC)c1-3", -1),
    ("C1=CC=C2NCCCCCCC/N=C3/C=CC=CC=C3NCCCCCCC/N=C\\2C=C1", -1),
    ("OC1C#CCSCC#C/C=C\\1 (stereo unspecified)", -1),
    ("COc1c(C)c(C/C=C(\\C)CC/C=C(\\C)CC/C=C(\\C)CCC=C(C)C)c(OC)c2ccccc12", -1),
]
